system_tested: K-Ras G13C (Homo sapiens (Human), UniProt P01116+P62937, G13C)
Sequence (P01116-2 other isoform, or with tags, fused parts or gaps G13C): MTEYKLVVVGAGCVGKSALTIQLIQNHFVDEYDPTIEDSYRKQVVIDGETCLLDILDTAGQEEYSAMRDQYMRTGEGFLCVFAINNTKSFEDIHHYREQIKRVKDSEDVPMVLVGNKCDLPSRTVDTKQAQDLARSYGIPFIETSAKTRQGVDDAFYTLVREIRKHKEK
Sequence (P62937 whole entry): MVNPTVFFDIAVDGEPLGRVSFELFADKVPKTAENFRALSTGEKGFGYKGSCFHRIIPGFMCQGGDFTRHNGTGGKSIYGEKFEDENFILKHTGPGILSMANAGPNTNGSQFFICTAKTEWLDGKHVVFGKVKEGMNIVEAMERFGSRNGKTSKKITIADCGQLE
method_summary: Ras-Raf (BRAF RBD) disruption / FRET / MOA assay, KRAS G13C
Format: biochemical
measurement_setup: KRAS G13C; Ras-Raf disruption/FRET/MOA assay; read-out: IC50* KRAS G13C FRET data
pIC50: −log10 of the molar value.
A collection of molecules and their measured pIC50

Study these solved cases before continuing.
molecule	pIC50
C=CC(=O)N1CC[C@]2(C1)CN(C(=O)N(C)[C@H](C(=O)N[C@H]1Cc3nc(cs3)-c3ccc4c(c3)c(c(-c3cccnc3[C@H](C)OC)n4CC)CC(C)(C)COC(=O)[C@@H]3CCCN(N3)C1=O)C(C)C)CCO2 (atropisomer, axis not shown)	6.00 to 7.00
C=CC(=O)N1CC2(CCN([C@H](C(=O)N[C@H]3Cc4cc(O)cc(c4)-c4ccc5c(c4)c(c(-c4cccnc4[C@H](C)OC)n5CC)CC(C)(C)COC(=O)[C@@H]4CCCN(N4)C3=O)C(C)C)C2=O)C1 (atropisomer, axis not shown)	> 8.00

In plain terms, C=CC(=O)N1CC(OC[C@H](C(=O)N[C@H]2C[C@H]3CN(CCO3)c3ccc4c(c3)c(c(-c3cccnc3[C@H](C)OC)n4CC(F)(F)F)CC(C)(C)COC(=O)[C@@H]3CCCN(N3)C2=O)C(C)C)C1 (atropisomer, axis not shown) has a documented pIC50 of 5.00 to 6.00

In plain terms, CCn1c(-c2cccnc2COC)c2c3cc(ccc31)-c1cc(O)cc(c1)C[C@H](NC(=O)[C@H](C(C)C)N(C)C(=O)[C@H]1CCC(C(=O)/C=C\CN(C)C)C1)C(=O)N1CCC[C@H](N1)C(=O)OCC(C)(C)C2 (some centres unmarked) [Example A164] has a documented pIC50 of 6.00 to 7.00

In plain terms, CCn1c(-c2cccnc2[C@H](C)OC)c2c3cc(ccc31)-c1csc(n1)C[C@H](NC(=O)CCOC1CN(C(=O)C#CC(C)(C)N(C)C)C1)C(=O)N1CCC[C@H](N1)C(=O)OCC(C)(C)C2 (atropisomer, axis not shown) has a documented pIC50 of 5.00 to 6.00

In plain terms, C=CC(=O)N1CCN(C(=O)N(C)[C@H](C(=O)N[C@H]2Cc3cc(O)cc(c3)-c3ccc4c(c3)c(c(-c3ccccc3CCOC)n4CC)CC(C)(C)COC(=O)[C@@H]3CCCN(N3)C2=O)C(C)C)C[C@@H]1COC has a documented pIC50 of 6.00 to 7.00

In plain terms, C=CC(=O)N(C)C[C@@H]1CCN1C(=O)N(C)[C@H](C(=O)N[C@H]1Cc2nc(cs2)-c2ccc3c(c2)c(c(-c2cccnc2[C@H](C)OC)n3CC)CC(C)(C)COC(=O)[C@@H]2CCCN(N2)C1=O)C(C)C (atropisomer, axis not shown) has a documented pIC50 of 6.00 to 7.00

In plain terms, C=CC(=O)N1CC[C@H](C(=O)N(C)[C@H](C(=O)N[C@H]2Cc3cccc(c3)-c3ccc4c(c3)c(c(-c3cnccc3[C@H](C)OC)n4CC)CC(C)(C)COC(=O)[C@@H]3CCCN(N3)C2=O)C(C)C)C1 (single isomer, unassigned) [Example A115] has a documented pIC50 of 5.00 to 6.00
